We begin with a simple list: items and their reported 3' UTR reporter interaction score.
- System: PHOX2B
- assay-overview: 3' UTR reporter interaction score (median-centred robust z-score of log2 firefly/Renilla activity); higher = less repression of the 3' UTR reporter
- assay-setup: HEK293T; 48 h
Note: the reply should be a number with no unit written.

Solved entries (count: 5):
UGUAAACAUCCUUGACUGGA :: 0.574
AAAGUGCUUCCUUUUAGAGGGUU :: 0.533
UAAGUGCUUCCAUGUUUCAGUGG :: -0.0319
AGUGUGGCUUUCUUAGAGC :: 1.11
AAUUGCACUUUAGCAAUGGUGA :: 0.339

Read off the recorded 3' UTR reporter interaction score for AGUAUUCUGUACCAGGGAAGGU 0.0656

Read off the recorded 3' UTR reporter interaction score for UGUCUGCCCGCAUGCCUGCCUCU -1.69

Read off the recorded 3' UTR reporter interaction score for UGGAAUGUAAGGAAGUGUGUGG 0.446

Read off the recorded 3' UTR reporter interaction score for AAAGUGCUUCUCUUUGGUGGGUU 1.31

Read off the recorded 3' UTR reporter interaction score for AGGAAGCCCUGGAGGGGCUGGAGGU 1.18

Read off the recorded 3' UTR reporter interaction score for CUGACCUAUGAAUUGACAGCC -1.28

Read off the recorded 3' UTR reporter interaction score for UGACAACUAUGGAUGAGCUCU -0.766

Read off the recorded 3' UTR reporter interaction score for AGCUGGUGUUGUGAAUC 0.54

Read off the recorded 3' UTR reporter interaction score for UCUUGGAGUAGGUCAUUGGGUGG -1.26

Read off the recorded 3' UTR reporter interaction score for CAUCCCUUGCAUGGUGGAGGGU -0.0949

Read off the recorded 3' UTR reporter interaction score for CAUUAUUACUUUUGGUACGCG 0.437

Read off the recorded 3' UTR reporter interaction score for CUGGACUUGGAGUCAGAAGGCC 0.64

Read off the recorded 3' UTR reporter interaction score for AAACUACUGAAAAUCAAAGAU -0.331

----------
- Test system: MYCN
- assay-overview: 3' UTR reporter interaction score (median-centred robust z-score of log2 firefly/Renilla activity); higher = less repression of the 3' UTR reporter
- assay-setup: HEK293T; 48 h
assay-metric: 3' UTR reporter interaction score
Note: the reply should be a number with no unit written.

UAGUACCAGUACCUUGUGUUCA :: 0.174
AAAGUGCUGUUCGUGCAGGUAG :: -0.359
UAAUACUGCCGGGUAAUGAUGG :: -0.263
GAGCUUAUUCAUAAAAGUGCAG :: 0.314
AAACCUGUGUUGUUCAAGAGUC :: -0.75

Read off the recorded 3' UTR reporter interaction score for UGGCAGUGUAUUGUUAGCUGGU -4.71

Read off the recorded 3' UTR reporter interaction score for AAUCGUACAGGGUCAUCCACUU -0.121

Read off the recorded 3' UTR reporter interaction score for UGGCAGUGUCUUAGCUGGUUGUU -3.64

Read off the recorded 3' UTR reporter interaction score for UAUGGCACUGGUAGAAUUCACUG 0.735

Read off the recorded 3' UTR reporter interaction score for UGCCUGGGUCUCUGGCCUGCGCGU -0.0821

Read off the recorded 3' UTR reporter interaction score for GGCAGGUUCUCACCCUCUCUAGG 0.446

----------
- Test system: MYCN
- assay-overview: 3' UTR reporter interaction score (median-centred robust z-score of log2 firefly/Renilla activity); higher = less repression of the 3' UTR reporter
- assay-setup: HEK293T; 48 h
We begin with a simple list: items and their reported 3' UTR reporter interaction score.
Note: the reply should be a number with no unit written.

Solved entries (count: 8):
UAGCAGCACAUAAUGGUUUGUG :: -0.121
AUCAGCAAACAUUUAUUGUGUG :: -0.181
GUUGGAGGAUGAAAGUACGGAGUGAU :: 0.4
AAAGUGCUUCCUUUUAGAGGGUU :: -0.338
AUUCUGCAUUUUUAGCAAGU :: 1.34
GUUCUCCCAACGUAAGCCCAGC :: 0.962
UAACACUGUCUGGUAAAGAUGG :: 0.21
AGCUGGUGUUGUGAAUC :: 0.275

Read off the recorded 3' UTR reporter interaction score for UGAGGUAGUAGAUUGUAUAGUU -4.33

Read off the recorded 3' UTR reporter interaction score for GUUCAAAUCCAGAUCUAUAAC -0.012

Read off the recorded 3' UTR reporter interaction score for AACAUUCAACGCUGUCGGUGAGU -0.12

----------
- Tested on: MYCN
- assay-overview: 3' UTR reporter interaction score (median-centred robust z-score of log2 firefly/Renilla activity); higher = less repression of the 3' UTR reporter
- assay-setup: HEK293T; 48 h
Kindly return TRUE if reported 3' UTR reporter interaction score is no lower than -0.3; return FALSE if it is lower.

GAAGUUGUUCGUGGUGGAUUCG :: FALSE
AAAGUGCUUCCUUUUUGAGGG :: TRUE
UAUGUGCCUUUGGACUACAUCG :: TRUE
UUUAGGAUAAGCUUGACUUUUG :: FALSE
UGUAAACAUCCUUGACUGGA :: FALSE
UACUCAGGAGAGUGGCAAUCACA :: TRUE
UGGAGAGAAAGGCAGUUC :: TRUE

Okay, next one:
State whether the measured 3' UTR reporter interaction score reaches -0.3, counting equality as reaching it, for UCAAGAGCAAUAACGAAAAAUGU FALSE

----------
- Tested on: ZEB2
- assay-overview: 3' UTR reporter interaction score (median-centred robust z-score of log2 firefly/Renilla activity); higher = less repression of the 3' UTR reporter
- assay-setup: HEK293T; 48 h
We begin with a simple list: items and their reported 3' UTR reporter interaction score.
Note: the reply should be a number with no unit written.

Solved entries (count: 5):
UGCUUCCUUUCAGAGGGU :: -0.357
AUCGGGAAUGUCGUGUCCGCC :: 0.211
UGUCUUGCAGGCCGUCAUGCA :: -2.19
ACAAAGUGCUUCCCUUUAGAGU :: 0.377
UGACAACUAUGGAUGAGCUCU :: 0.125

Read off the recorded 3' UTR reporter interaction score for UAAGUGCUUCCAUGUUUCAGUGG 0.969

----------
- System: FBXW7
- assay-overview: 3' UTR reporter interaction score (median-centred robust z-score of log2 firefly/Renilla activity); higher = less repression of the 3' UTR reporter
- assay-setup: HEK293T; 48 h
We begin with a simple list: items and their reported 3' UTR reporter interaction score.
Note: the reply should be a number with no unit written.

AACAUUCAUUGCUGUCGGUGGG :: 0.243
UAGCAGCGGGAACAGUUCUGCAG :: -2.86
AAAAGCUGGGUUGAGAGGGCGAA :: 0.0632
AAGUGCUUCCUUUUAGAGGGUU :: 0.635

Read off the recorded 3' UTR reporter interaction score for GAAGUGCUUCGAUUUUGGGGUGU -0.253

Read off the recorded 3' UTR reporter interaction score for UGAGAACUGAAUUCCAUGGGUU -0.989

Read off the recorded 3' UTR reporter interaction score for AUCACAUUGCCAGGGAUUACC -0.221

Read off the recorded 3' UTR reporter interaction score for UUCUCCAAAAGGGAGCACUUUC -0.759

----------
- Tested on: BRCA2
- assay-overview: 3' UTR reporter interaction score (median-centred robust z-score of log2 firefly/Renilla activity); higher = less repression of the 3' UTR reporter
- assay-setup: HEK293T; 48 h
Field: class. Source value: 3' UTR reporter interaction score. Ranges: low band = under -0.3, middle band = from -0.3 up to 0.2, high band = 0.2 and over

Reference set (2 entries):
UGAUUGUCCAAACGCAAUUCU :: high band
CUGGGAUCUCCGGGGUCUUGGUU :: low band

Tag the class for CCUCUAGAUGGAAGCACUGUCU high band

Tag the class for CAUCUGGAGGUAAGAAGCACUUU high band

Tag the class for ACUAGACUGAAGCUCCUUGAGG high band

Tag the class for UGGGCGUAUCUGUAUGCUA low band

----------
- Tested on: NOTCH1
- assay-overview: 3' UTR reporter interaction score (median-centred robust z-score of log2 firefly/Renilla activity); higher = less repression of the 3' UTR reporter
- assay-setup: HEK293T; 48 h
assay-metric: 3' UTR reporter interaction score
Note: the reply should be a number with no unit written.

Solved entries (count: 8):
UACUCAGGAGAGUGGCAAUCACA :: -0.379
UCCUGUACUGAGCUGCCCCGAG :: -0.221
UUGUGCUUGAUCUAACCAUGU :: 0.182
UCCGAGCCUGGGUCUCCCUCU :: 0.141
UACUGCAUCAGGAACUGAUUGGAU :: 0.0506
AAGCAGCUGCCUCUGAGGC :: -0.304
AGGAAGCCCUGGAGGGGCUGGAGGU :: -1.34
UCUGGCUCCGUGUCUUCACUCC :: -2.05

Read off the recorded 3' UTR reporter interaction score for UCUCUGGAGGGAAGCACUUUCUG -2.09

Read off the recorded 3' UTR reporter interaction score for CUUUCAGUCGGAUGUUUACAGC 0.359

Read off the recorded 3' UTR reporter interaction score for AGGCUGCGGAAUUCAGGAC 0.93

Read off the recorded 3' UTR reporter interaction score for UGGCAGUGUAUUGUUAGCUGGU -4.47

Read off the recorded 3' UTR reporter interaction score for UCACAAUGCUGACACUCAAACUGCUGAC -0.0831

Read off the recorded 3' UTR reporter interaction score for GGCUAGCAACAGCGCUUACCU -0.508

Read off the recorded 3' UTR reporter interaction score for GUGAGUCUCUAAGAAAAGAGGA 0.287

Read off the recorded 3' UTR reporter interaction score for UCACAGUGAACCGGUCUCUUUU -0.144

Ref: the supplement of paper PMC5844555
